# measurement description: Oral bioavailability in rat at 5 mg/kg
# Format: ADME, organism-based
# condition summary: in vivo
attribute measured: bioavailability
Lab note: write values as number then unit, every time.

// worked examples, bioavailability included
smiles record: N#Cc1cnccc1COc1cnc(N2CCN(C(=O)OCC(F)(F)F)CC2)nc1
bioavailability: 48%
--
smiles record: N#Cc1cnccc1COc1cnc(N2CC3CCC(C2)N3C(=O)OCC(F)(F)F)nc1
bioavailability: 17%

Enquiry: Which value of bioavailability has been reported for `C[C@@H]1CN(C(=O)OCC(F)(F)F)CCN1c1ncc(OCc2ccncc2C#N)cn1` in the records?
Return: 27%

* * *

What follows is a record of IC50 for Glucose-dependent insulinotropic receptor (Homo sapiens, UniProt Q8TDV5).
API: value field is a number in nM; no unit string.

molecule: N#Cc1cnccc1COc1cnc(N2CCN(C(=O)OC3CC(F)(F)C3(F)F)CC2)nc1 (stereo not given)
value measured: 25

molecule: CC(C)(C)OC(=O)N1C2CCC1CN(c1ncc(OCc3ccc(S(C)(=O)=O)cc3)cn1)C2
value measured: 3

molecule: N#Cc1cnccc1COc1cnc(N2CC3CCC(C2)N3C(=O)OCC(F)(F)F)nc1
value measured: 8

Enquiry: Which value of IC50 has been reported for `CC(C)c1nc(N2CCN(c3ncc(OCc4ccncc4C#N)cn3)CC2)no1` in the records?
Return: 12

Enquiry: Which value of IC50 has been reported for `CC(C)c1nc(N2C3CCC2CN(c2ncc(OCc4ccncc4C#N)cn2)C3)no1` in the records?
Return: 4

Enquiry: Which value of IC50 has been reported for N#Cc1cnccc1COc1cnc(N2CC3CCC(C2)N3C(=O)OC2CC(F)(F)C2(F)F)nc1 (stereo not given) in the records?
Return: 9

* * *

Let's look at some molecules and their measured clearance.
# measurement description: Plasma clearance in rat at 2 mg/kg, iv and 5 mg/kg, po
# Type: ADME, organism-based
API: value field is a number in mL/min/kg; no unit string.

// worked examples, clearance included
smiles record: N#Cc1cnccc1COc1cnc(N2CCN(C(=O)OCC(F)(F)F)CC2)nc1
clearance [mL/min/kg]: 22

smiles record: N#Cc1cnccc1COc1cnc(N2CC3CCC(C2)N3C(=O)OCC(F)(F)F)nc1
clearance [mL/min/kg]: 11

Let's switch to this molecule now.
Enquiry: Which value of clearance has been reported for `C[C@@H]1CN(C(=O)OCC(F)(F)F)CCN1c1ncc(OCc2ccncc2C#N)cn1` in the records?
Return: 14

* * *

Let's look at some compounds and their measured solubility at 24 h.
# measurement description: Aqueous solubility of the compound in phosphate buffer at pH 7.4 at 25 degC after 24 hrs by LC-UV analysis
# Format: physicochemical
API: value field is a number in µM; no unit string.

smiles record: N#Cc1cnccc1COc1cnc(N2CC3CCC(C2)N3C(=O)OCC(F)(F)F)nc1
attribute measured: solubility at 24 h
value measured: 3.8

Let's switch to this compound now.
Enquiry: Which value of solubility at 24 h has been reported for `N#Cc1cnccc1COc1cnc(N2CCN(C(=O)OCC(F)(F)F)CC2)nc1` in the records?
Return: 3.3

* * *

# target entity: Cytochrome P450 1A2 (Homo sapiens)
# Sequence (P05177 whole entry): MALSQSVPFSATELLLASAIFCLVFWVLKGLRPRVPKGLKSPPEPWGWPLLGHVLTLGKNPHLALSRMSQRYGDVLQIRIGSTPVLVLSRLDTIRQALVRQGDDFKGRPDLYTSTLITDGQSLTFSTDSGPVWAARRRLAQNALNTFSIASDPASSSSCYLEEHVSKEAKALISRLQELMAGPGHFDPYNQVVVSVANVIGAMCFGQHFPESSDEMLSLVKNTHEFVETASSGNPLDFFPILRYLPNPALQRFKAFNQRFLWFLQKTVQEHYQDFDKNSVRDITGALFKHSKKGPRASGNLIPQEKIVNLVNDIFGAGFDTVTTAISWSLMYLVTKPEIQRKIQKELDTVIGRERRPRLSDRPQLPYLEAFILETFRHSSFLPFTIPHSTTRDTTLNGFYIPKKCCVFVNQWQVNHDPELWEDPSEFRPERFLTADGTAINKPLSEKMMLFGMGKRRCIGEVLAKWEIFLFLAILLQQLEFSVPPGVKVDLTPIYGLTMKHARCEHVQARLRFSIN
# measurement description: Inhibition of CYP1A2 (unknown origin)
# Format: ADME
pIC50: −log10 of the molar value.
attribute measured: pIC50

smiles record: N#Cc1cnccc1COc1cnc(N2CC3CCC(C2)N3C(=O)OCC(F)(F)F)nc1
target entity: Cytochrome P450 1A2 (Homo sapiens)
pIC50: < 4.52

Let's switch to this compound now.
Enquiry: Which value of pIC50 has been reported for `N#Cc1cnccc1COc1cnc(N2CCN(C(=O)OCC(F)(F)F)CC2)nc1` in the records?
Return: < 4.52
